- assayMethodText: Radiosensitizing effectivity evaluated as its ability to sensitize hypoxic Chinese hamster cells (V-79) towards ionizing radiation at 0.1 mM
- Assay type: functional
# Enhancement ratio values compiled below
readoutType: Enhancement ratio

>>> df
                                   molecule  numericvalue
0  CC1Cn2cc([N+](=O)[O-])nc2O1 (centres undefined)           1.2
1  O=[N+]([O-])c1cn2c(n1)OC(CCl)C2 (centres undefined)           1.1
2  COCC1Cn2cc([N+](=O)[O-])nc2O1 (centres undefined)           1.1
3  COCC(O)Cn1cc([N+](=O)[O-])nc1[N+](=O)[O-] (centres undefined)           1.8
